Recorded values, source the OPERA property sets (Mansouri et al. 2018).

Readout Name: logP

# annotated cases, reported logP shown
CC(C)CNC(=O)C=Cc1ccc([N+](=O)[O-])o1    2.23
COC(=O)C(=Cc1ccc([N+](=O)[O-])o1)[N+](=O)[O-]    1.6
CCOC(=O)C=Cc1ccc([N+](=O)[O-])o1    2.1

a. CCCCCOC(=O)C=Cc1ccc([N+](=O)[O-])o1
b. CCNC(=O)C=Cc1ccc([N+](=O)[O-])o1
## Task Please indicate which item has the smaller measured logP: a versus b # answer = label of selected item
## Result b

====

Readout Name: logP

CC(C)(C)NC(=O)C=Cc1ccc([N+](=O)[O-])o1    2.33
O=[N+]([O-])c1ccc(C=CBr)o1    2.45
CC(C)(C)CNC(=O)C=Cc1ccc([N+](=O)[O-])o1    2.61
O=[N+]([O-])C=Cc1ccc([N+](=O)[O-])o1    1.3
